# Tested target: T1, Recombinant human sgM-CSF (human, UniProt P09603 33-255)
# T1 construct: also called human secreted glycosylated M-CSF; Human M-CSF
# T1 sequence: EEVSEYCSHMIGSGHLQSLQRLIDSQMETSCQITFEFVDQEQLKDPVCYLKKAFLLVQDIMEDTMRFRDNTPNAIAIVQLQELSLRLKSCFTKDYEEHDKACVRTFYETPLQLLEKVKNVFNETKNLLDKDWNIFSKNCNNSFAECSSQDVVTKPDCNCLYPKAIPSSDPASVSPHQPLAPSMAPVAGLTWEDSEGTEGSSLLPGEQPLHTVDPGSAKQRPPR
# Experiment summary: MSD receptor binding inhibition: 12.5 pM human sgM-CSF preincubated with antibody, binding to coated human CSF1-R-Fc
# IC50 values compiled below
Numeric answer only, unit pM assumed.

- Binder: "Camille, IgG1_D265A (antibody, V domains shown, tested as IgG1 with D265A in the Fc (EU index)) VH: QVQLQQSGPGLVKPSQTLSLTCAISGESVSTSSAAWNWIRQSPSRGLEWLGRTYYRSKWKHEYAVSVKSRITINPDTSKNQFSLQLNSVTPEDTAVYYCARDRYYYSAFDYWGQGTLVTVSS VL: QSALTQPASVSGSPGQSITISCTGTSSDVGGYNSVSWYQQHPGKAPKLLIYAVSNRPSGVSNRFSGSKSGNTASLTISGLQAEDEADYYCASYDERFTRVFGGGTKLTVLG"
  IC50 (pM): 4.4
- Binder: "Blanche, IgG1_D265A (antibody, V domains shown, tested as IgG1 with D265A in the Fc (EU index); Parental antibody of Caline, Camille, Celine) VH: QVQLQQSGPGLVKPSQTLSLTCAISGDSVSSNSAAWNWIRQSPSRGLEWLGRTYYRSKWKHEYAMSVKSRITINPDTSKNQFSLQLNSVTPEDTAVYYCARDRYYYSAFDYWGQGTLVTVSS VL: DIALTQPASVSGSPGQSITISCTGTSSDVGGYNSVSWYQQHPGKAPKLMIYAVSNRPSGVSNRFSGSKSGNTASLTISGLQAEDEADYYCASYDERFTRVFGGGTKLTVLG"
  IC50 (pM): 6.2

Attention now turns to another entry.
Q: Would you kindly share the measured IC50 for Caline, IgG1_D265A (antibody, V domains shown, tested as IgG1 with D265A in the Fc (EU index)) VH: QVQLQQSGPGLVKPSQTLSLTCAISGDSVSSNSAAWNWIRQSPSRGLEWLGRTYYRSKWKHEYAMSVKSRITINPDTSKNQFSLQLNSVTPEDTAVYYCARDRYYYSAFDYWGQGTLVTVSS VL: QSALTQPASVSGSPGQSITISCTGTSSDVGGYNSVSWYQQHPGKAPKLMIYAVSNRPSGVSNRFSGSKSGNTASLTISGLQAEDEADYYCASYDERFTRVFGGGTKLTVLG ?
Result: 6.1
